Below, each entry is listed with its recorded difference in startle response.
system: Danio rerio larvae (5 dpf); assay: difference in startle response vs DMSO (percentage points); higher = stronger startle than DMSO; conditions: 10 µM; exposure time 6 h
Structures can show the parent of a compound that is named as a salt.
Measurement type: difference in startle response

Compound	Test system	Measurement type	Measured value
O=C(O)CCCN1CCC(O[C@@H](c2ccc(Cl)cc2)c2ccccn2)CC1 [Bepotastine (besylate)]	Danio rerio larvae (5 dpf)	difference in startle response	3.74
CCCCc1oc2ccccc2c1C(=O)c1cc(I)c(OCCN(CC)CC)c(I)c1 [Amiodarone (hydrochloride)]	Danio rerio larvae (5 dpf)	difference in startle response	-3.14
Cc1c2oc3c(C)ccc(C(=O)N[C@@H]4C(=O)N[C@H](C(C)C)C(=O)N5CCC[C@H]5C(=O)N(C)CC(=O)N(C)[C@@H](C(C)C)C(=O)O[C@@H]4C)c3nc-2c(C(=O)N[C@@H]2C(=O)N[C@H](C(C)C)C(=O)N3CCC[C@H]3C(=O)N(C)CC(=O)N(C)[C@@H](C(C)C)C(=O)O[C@@H]2C)c(N)c1=O	Danio rerio larvae (5 dpf)	difference in startle response	-6.8

Recorded values, source the supplement of paper PMC10515830.
